// reported IC50 per item
molecular target: MAPKAPK2 (MK-2) (Homo sapiens, UniProt P49137); experiment: Determination of MK-2 IC50 (HSP-peptide phosphorylation, anion exchange resin capture assay); format: biochemical; conditions: Table 2, pyrazolylpyrazole MK-2 inhibitors; read-out: MK-2 Avg. IC50
Sequence (P49137 whole entry, species assumed): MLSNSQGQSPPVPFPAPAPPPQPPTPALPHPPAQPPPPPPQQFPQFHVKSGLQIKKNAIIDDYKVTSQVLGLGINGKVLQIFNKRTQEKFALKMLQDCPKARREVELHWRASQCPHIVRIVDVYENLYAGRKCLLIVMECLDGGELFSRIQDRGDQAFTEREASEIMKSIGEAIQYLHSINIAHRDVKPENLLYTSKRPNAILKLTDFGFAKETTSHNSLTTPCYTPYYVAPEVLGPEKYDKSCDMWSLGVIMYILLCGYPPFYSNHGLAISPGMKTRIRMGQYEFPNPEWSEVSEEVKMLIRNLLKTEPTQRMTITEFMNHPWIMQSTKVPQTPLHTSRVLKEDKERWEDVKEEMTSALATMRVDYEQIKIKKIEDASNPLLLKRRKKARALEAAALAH
I only need the number, in µM, no unit after it.

// below: answered compounds
>>> print(df.to_string())
                                   compound  uom  quantitative_readout
0  CCOC(=O)c1c2c(nn1CCCN)-c1cn[nH]c1CC2 [Example 33]   µM                   116
1  NC(=O)c1nn(-c2ccccc2)c2c1CCc1[nH]ncc1-2 [Example 29]   µM                   112
2  NC(=O)c1ccc(-n2nc(C(N)=O)c3c2-c2cn[nH]c2CC3)cc1 [Example 24]   µM                  78.4

Enquiry: I have this compound here, O=C(O)c1nn(CC(F)(F)F)c2c1CCc1[nH]ncc1-2 [Example 42] , and I need its recorded IC50.
Return: 180
